Source listed as patent US20240218054A1.

So I've got a bunch of binders here, and I need their Kd values.
# target.desc: T1, recombinant YFV E protein (soluble E, sE; YFV Asibi strain) (Yellow fever virus, Asibi strain, UniProt Q6DV88 286-678)
# T1 construct: also called YFV E antigen; YFV E monomer
# test: BLI monovalent (IgG on tip)

{"binder": "ADI-48435 (antibody, V domains shown, full-length IgG; also called Antibody Number 85) VH: QVQLVQSGAEVKKPGASVKVSCKASGYTFTSYGISWVRQAPGQGLEWMGWISAYNGNTNYAQKLQGRVTMTTDTSTSTAYMELRSLRSDDTAVYYCARRGTTVTRFGVIQYYYGMDVWGQGTTVTVSS VL: QSVLTQPASVSGSPGQSITISCTGTSSDVGGYNYVSWYQQHPGKAPKLMIYDVSNRPSGVSNRFSGSKSGNTASLTISGLQAEDEADYYCSSYTSSSTLVFGGGTQLTVL", "observable": "Kd", "recorded.measurement": "> 100 nM"}
{"binder": "ADI-50531 (antibody, V domains shown, full-length IgG; also called Antibody Number 42) VH: EVTLKESGPTLVKPTQTLTLTCTFSGFSLSTSGVGVGWIRQPPGKALEWLALIYWDDDKRYSPSLKSRLTITKDTSKNQVVLTMTNMDPVDTATYYCAHSPRRITMVRGVIITWGDGMDVWGQGTTVTVSS VL: QPVLTQPASVSGSPGQSITISCTGTSSDVGGYNYVSWYQQHPGKAPKLMIYDVSNRPSGVSNRFSGSKSGNTASLTISGLQAEDEADYYCSSYTSSSTLAVFGGGTKLTVL", "observable": "Kd", "recorded.measurement": "> 100 nM"}

Let's switch to this binder now.
Consider the binder shown here: ADI-45140 (antibody, V domains shown, full-length IgG; also called Antibody Number 61) VH: EVQLLESGGGLVHPGGSLRLSCAASGFTFSDYEMNWVRQAPGKGLEWVSHISSSGNIIYYADSVKGRFTISRDNAKDSLYLQMNSLRAEDTAVYYCAATIFGVVSFDYWGQGTLVTVSS VL: QSVLTQPPSVSAAPGQKVTISCSGSSSNIGNNYVSWYQQLPGTAPKVLIYDNNKRPSGIPDRFSGSKSGTSATLGITGLQTGDEADYYCGTWDSALGAAVFGGGTKLTVL What is its recorded Kd?
4.6 nM
